System: SF-268
Experiment: NCI tumour cell line growth inhibition, 48 h
Active and inactive are the calls of the source. Cut-off read from the data, not from the text of the source: active = GI50 up to about 1.1 µM and inactive = higher.
Property Name: GI50

GI50 for CC(=O)O[C@H]1C(=O)[C@@]2(C)[C@H]([C@H](OC(=O)c3ccccc3)[C@]3(O)C[C@H](OC(=O)[C@H](O)[C@@H](NC(=O)CC(C)C)c4ccccc4)C(C)=C1C3(C)C)[C@]1(OC(C)=O)CO[C@@H]1C[C@@H]2O is 0.00486 µM (active)

Value of measured GI50 for the entry CNC(=O)N1CCN(C(=O)NC)CCN(C(=O)NC)CC1 : > 100 µM (inactive)

Lab note: CN(C)CC1CCCC(CN(C)C)C1=NOC(=O)c1ccccc1 (stereo not given) gave GI50 of > 100 µM (inactive)

The compound listed as C[C@@H](NC(=O)OC1C=CC2(CC1)C(=O)N(C)c1ccccc12)c1cccc2ccccc12 (stereo not given in full) shows GI50 equal to 7.36 µM (inactive)

The compound listed as COc1ccc(N2C(=O)C3c4[nH]c5ccccc5c4C4CCC(c5ccccc5)CC4C3C2=O)cc1 (stereo not given) shows GI50 equal to 10.4 µM (inactive)

For this compound ( O=C(c1ccc(-c2ccccc2)cc1)N(Cc1cccnc1)C(=S)N(Cc1cccnc1)C(=O)c1ccc(-c2ccccc2)cc1 ), measured GI50 is > 100 µM (inactive)

The compound identified as CCOC1SC(SC)=NN1C(=O)C(OC(C)=O)C(OC(C)=O)C(OC(C)=O)C(OC(C)=O)C(=O)N1N=C(SC)SC1OCC (stereo not given) registered its GI50 at > 100 µM (inactive)

The recorded GI50 for O=C1C(Cl)N(c2ccccc2)C1c1c[nH]c2ccccc12 (stereo not given) is > 100 µM (inactive)

Please fill in: GI50 reported for CCOC(=O)N1C(=O)C2C3C=CC(C2C1=O)C1C2C(=O)N(C(=O)OCC)C(=O)C2C31 (stereo not given) = > 81.3 µM (inactive)

For record Cc1ccc(-c2c(C#N)c(-c3ccc(N(C)C)cc3)c(C#N)c(=O)n2NS(=O)(=O)c2ccccc2)cc1 the listed GI50 is 79.3 µM (inactive)
